tested on: OVCAR-8 ovarian; test: NCI-60 one-dose screen, 48 h; settings: 10 µM unless noted
This is part of a sample that, as a whole, favours compounds with a hit. Of some 83,000 tested, about 20% had one in any assay. Calls of active or inactive are those of the source. Rule for the calls: active = growth percent below 10; inactive = the rest.
Lab note: assign the record to one of yes (1) = active, no (0) = inactive

Here are 5 compounds together with their reported answers.
CCCCOc1nc2cc(Cl)ccc2cc1/C=C/c1cc(/C=C/c2cc3ccc(Cl)cc3nc2OCCCC)n(-c2ccccc2)n1 :: no (0)
N#Cc1c(NC(=O)c2cccs2)[n+]([O-])c2ccc(F)cc2[n+]1[O-] :: no (0)
CNC(=O)c1c(C)oc2cc(Oc3ncnc4cc(OC)c(OC)cc34)ccc12 :: no (0)
COc1cccc(NC(=O)Nc2ccc(Nc3ncnc4sc5c(c34)CCN(C(=O)CCl)C5)cc2)c1 :: no (0)
CN1CCN(Cc2ccc(NC(=O)c3[nH]ncc3Nc3ncnc4sc5c(c34)CCCC5)cc2)CC1 :: yes (1)

What classification did C=CC[n+]1c(/C=C2\Sc3ccccc3N2C)sc(-c2ccccc2)c1-c1ccccc1 end up with in this test?
no (0)

Record: Cc1cc(C(=O)NOCCO)c(Nc2ccc(I)cc2F)n(C)c1=O
no (0)

Record: [2H]C1([2H])[C@H](C)O[C@H](C)C([2H])([2H])N1c1ccc(NC(=O)c2cccc(-c3ccc(OC(F)(F)F)cc3)c2C)cn1
no (0)

Record: CNC(=O)CN1CCC(Oc2cc3c(Nc4cccc(Cl)c4F)ncnc3cc2OC)CC1
no (0)
